system: 628569-122-R-J1-PDC complex spheroid viability; assay: Anticancer human tumor 628569-122-R-J1-PDC patient-derived head and neck squamous carcinoma cell line growth inhibition [CLK]; conditions: second compound 10 µM; first compound 3.16 µM; active = viability on the fitted dose curve at most 10% of control; inactive = the rest
Write down one outcome, taken from 1 (yes) for active, 0 (no) for inactive

# lookup: test call for CC(Nc1ccc2c(c1)OCCn1cc(N3C(=O)OCC3C(F)F)nc1-2)C(N)=O (stereo not given) + CN1CCN(c2cc(C(=O)Nc3cc4cc(-c5cnn(C)c5)ccc4cn3)ccn2)CC1
1 (yes)

# lookup: test call for O=c1[nH]cc(F)c(=O)[nH]1 + CN1CCN(c2cc(C(=O)Nc3cc4cc(-c5cnn(C)c5)ccc4cn3)ccn2)CC1
1 (yes)

# lookup: test call for COC1C=CCC(C)C(C)S(=O)(=O)NC(=O)c2ccc3c(c2)N(CC2CCC21)CC1(CCCc2cc(Cl)ccc21)CO3 (stereo not given) + CN1CCN(c2cc(C(=O)Nc3cc4cc(-c5cnn(C)c5)ccc4cn3)ccn2)CC1
1 (yes)

# lookup: test call for CC1(C)CCC(CN2CCN(c3ccc(C(=O)NS(=O)(=O)c4ccc(NCC5CCOCC5)c([N+](=O)[O-])c4)c(Oc4cnc5[nH]ccc5c4)c3)CC2)=C(c2ccc(Cl)cc2)C1 + CNC(=O)c1ccc(Nc2nc(OC3CCCC3)c3c(-c4ccc5nc(C)oc5c4)c[nH]c3n2)c(OC)c1
0 (no)

# lookup: test call for COc1ccc([C@@H](O)c2cc(-c3ncnc4cc(N5CCOCC5)ccc34)c(F)cc2Cl)nn1 + CNC(=O)c1ccc(Nc2nc(OC3CCCC3)c3c(-c4ccc5nc(C)oc5c4)c[nH]c3n2)c(OC)c1
0 (no)

* * *

test system: 628569-122-R-J1-PDC complex spheroid viability; assay: Anticancer human tumor 628569-122-R-J1-PDC cell line growth inhibition [CLK]; conditions: second compound 0.316 µM; first compound 1 µM; stronger effect = lower value;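 note: spheroids exposed to agents for seven days before readout; 100% = DMSO vehicle control viability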
The label is YES for viability, T/C below 60% and NO for viability, T/C equal to or exceeding 60%.

Dear reviewer, please state whether CCc1c2c(nc3ccc(O)cc13)-c1cc3c(c(=O)n1C2)COC(=O)[C@]3(O)CC + CN1CCN(c2cc(C(=O)Nc3cc4cc(-c5cnn(C)c5)ccc4cn3)ccn2)CC1 has viability, T/C strictly beneath 60%.
YES

Dear reviewer, please state whether C=CC(=O)N1CCN(c2nc(=O)n(-c3c(C)ccnc3C(C)C)c3nc(-c4c(O)cccc4F)c(F)cc23)C(C)C1 (stereo not given) + CNC(=O)c1ccc(Nc2nc(OC3CCCC3)c3c(-c4ccc5nc(C)oc5c4)c[nH]c3n2)c(OC)c1 has viability, T/C strictly beneath 60%.
NO

Dear reviewer, please state whether Nc1ccn(C2OC(CO)C(O)C2(F)F)c(=O)n1 (stereo not given) + CN1CCN(c2cc(C(=O)Nc3cc4cc(-c5cnn(C)c5)ccc4cn3)ccn2)CC1 has viability, T/C strictly beneath 60%.
YES

Dear reviewer, please state whether CC(Nc1ccc2c(c1)OCCn1cc(N3C(=O)OCC3C(F)F)nc1-2)C(N)=O (stereo not given) + CNC(=O)c1ccc(Nc2nc(OC3CCCC3)c3c(-c4ccc5nc(C)oc5c4)c[nH]c3n2)c(OC)c1 has viability, T/C strictly beneath 60%.
YES

Dear reviewer, please state whether CC(CO)NC(=O)c1cc(-c2ccc(Cl)cc2)nn(-c2cnn(C)c2)c1=O (stereo not given) + CN1CCN(c2cc(C(=O)Nc3cc4cc(-c5cnn(C)c5)ccc4cn3)ccn2)CC1 has viability, T/C strictly beneath 60%.
NO
